The origin of these recorded values is patent US20150368338A1.

# measurementTarget: T1, IFN-αG (human, UniProt P01569 24-189)
# T1 construct: also called IFN-α5; alpha G
# assayMethodText: ProteOn, one antigen concentration
The reader will find reported pKd values listed item by item below.
For clarity, pKd is expressed as the negative log10 of concentration in mol/L.

# annotated cases, reported pKd shown
| binder | pKd |
| --- | --- |
| IFWM3292 (antibody, V domains shown, VH IFWH624, VL IFWL999; converted mAb; also called IFWB3027) VH: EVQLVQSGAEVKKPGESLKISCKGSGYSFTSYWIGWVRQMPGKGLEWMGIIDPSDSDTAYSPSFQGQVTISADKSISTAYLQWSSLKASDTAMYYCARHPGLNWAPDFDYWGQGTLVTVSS VL: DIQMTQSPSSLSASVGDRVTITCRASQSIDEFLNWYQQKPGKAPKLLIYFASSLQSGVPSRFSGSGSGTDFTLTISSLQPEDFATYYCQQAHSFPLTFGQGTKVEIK | 10.31 |
| IFWM3333 (antibody, V domains shown, VH IFWH591, VL IFWL1076; converted mAb; also called IFWB3068) VH: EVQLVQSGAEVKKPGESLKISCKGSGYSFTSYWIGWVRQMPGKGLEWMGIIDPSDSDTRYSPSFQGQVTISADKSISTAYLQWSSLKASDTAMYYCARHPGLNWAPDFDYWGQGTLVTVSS VL: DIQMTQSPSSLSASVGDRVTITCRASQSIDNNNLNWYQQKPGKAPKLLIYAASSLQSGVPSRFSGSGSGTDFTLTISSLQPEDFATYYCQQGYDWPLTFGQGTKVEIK | 10.11 |

Next binder, pKd to be filled in.
## Input Report pKd for IFWM3348 (antibody, V domains shown, VH IFWH624, VL IFWL1006; converted mAb; also called IFWB3083) VH: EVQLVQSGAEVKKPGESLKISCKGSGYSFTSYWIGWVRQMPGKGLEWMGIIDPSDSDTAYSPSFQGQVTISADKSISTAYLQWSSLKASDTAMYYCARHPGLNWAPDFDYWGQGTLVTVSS VL: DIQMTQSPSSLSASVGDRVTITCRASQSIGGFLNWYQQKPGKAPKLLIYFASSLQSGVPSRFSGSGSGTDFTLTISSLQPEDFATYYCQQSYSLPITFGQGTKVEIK
## Output 10.70
